The entries below are paired with their reported IC50.
- studyTarget: UniProtKB P43119
- Sequence (P43119 whole entry): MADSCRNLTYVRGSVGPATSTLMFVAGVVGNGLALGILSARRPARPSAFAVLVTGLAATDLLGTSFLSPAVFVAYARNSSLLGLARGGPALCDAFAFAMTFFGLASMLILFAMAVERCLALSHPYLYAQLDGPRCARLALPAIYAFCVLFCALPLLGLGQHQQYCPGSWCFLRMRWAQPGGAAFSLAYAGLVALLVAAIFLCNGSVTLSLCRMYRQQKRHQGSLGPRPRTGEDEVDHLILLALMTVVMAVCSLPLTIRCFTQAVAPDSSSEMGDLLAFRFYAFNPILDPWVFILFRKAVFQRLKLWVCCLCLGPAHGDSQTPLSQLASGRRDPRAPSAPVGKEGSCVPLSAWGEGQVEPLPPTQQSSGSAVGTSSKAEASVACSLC
# value in nM; strip the unit string

IC50 value, target or system UniProtKB P43119, for CCCCC[C@H](O)/C=C/[C@@H]1[C@@H](CC#CCCCC(=O)O)C(=O)C(C)(C)[C@H]1O [Compound 43] : 3980

# next molecule below
Field IC50 (system: UniProtKB P43119) for entry CCCCC[C@H](O)/C=C/[C@@H]1[C@@H](C/C=C\CCCC(=O)O)C(=O)C(C)(C)[C@H]1O [Compound 44] = 284

* * *

- studyTarget: hEP2 (Homo sapiens (Human), UniProt P43116)
- Sequence (P43116 whole entry): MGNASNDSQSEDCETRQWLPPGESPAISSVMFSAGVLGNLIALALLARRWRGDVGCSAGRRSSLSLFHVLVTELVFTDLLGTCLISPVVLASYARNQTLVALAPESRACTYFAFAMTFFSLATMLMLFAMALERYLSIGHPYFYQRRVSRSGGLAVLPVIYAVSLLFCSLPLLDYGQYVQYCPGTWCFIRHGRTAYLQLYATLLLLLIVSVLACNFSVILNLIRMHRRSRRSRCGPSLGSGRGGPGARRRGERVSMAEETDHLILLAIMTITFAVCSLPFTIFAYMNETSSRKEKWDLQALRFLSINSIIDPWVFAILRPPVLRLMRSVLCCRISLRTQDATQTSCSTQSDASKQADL
- assayDetails: FLIPR calcium signal, HEK-293(EBNA) cells expressing hEP2/Gqs5
- experimentalSetup: bottom number in Table 2, read-out: hEP2 functional EC50
readoutName: pEC50
// returns pEC50 (minus log10 of molar concentration), number only

Summary for this compound, CCCCC[C@H](O)/C=C/[C@@H]1[C@@H](C/C=C\CCCC(=O)O)C(=O)C(C)(C)[C@H]1O : pEC50 is 6.03

* * *

- studyTarget: hEP1 (Homo sapiens (Human))
- Sequence (P34995 whole entry): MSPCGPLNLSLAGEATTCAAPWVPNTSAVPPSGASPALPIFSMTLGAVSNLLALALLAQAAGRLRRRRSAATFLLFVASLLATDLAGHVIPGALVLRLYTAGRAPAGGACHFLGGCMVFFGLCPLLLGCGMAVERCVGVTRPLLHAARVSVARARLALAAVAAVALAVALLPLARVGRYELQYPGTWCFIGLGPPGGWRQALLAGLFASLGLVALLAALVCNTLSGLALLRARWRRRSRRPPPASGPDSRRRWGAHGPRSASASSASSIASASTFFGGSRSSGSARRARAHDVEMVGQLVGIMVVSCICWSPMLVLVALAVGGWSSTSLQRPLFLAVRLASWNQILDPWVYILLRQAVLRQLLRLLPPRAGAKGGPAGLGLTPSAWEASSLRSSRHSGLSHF
// map IC50 onto a label; ranges one (below 300 nM), two (300 nM to below 1000 nM), three (1000 nM or more)

Record excerpt, results attached:
Asked: Tag the class for CC1(C)C(=O)[C@H](C/C=C\CCCC(=O)O)[C@@H](/C=C/C(O)Cc2ccccc2)[C@@H]1O (single isomer, unassigned) [Compound 47]
Given back: two

Asked: Please let me know in which category the item CCCCC[C@H](O)/C=C/[C@@H]1[C@@H](CC#CCCCC(=O)O)C(=O)C(C)(C)[C@H]1O [Compound 43] belongs.
Given back: three

Asked: Hey, which category is CC1(C)C(=O)[C@H](C/C=C\CCCC(=O)O)[C@@H](/C=C/C(O)Cc2cc3ccccc3s2)[C@@H]1O (single isomer, unassigned) [Compound 55] in, do you know?
Given back: two

Others:
Asked: Kindly state the category for this compound: CCCCC[C@H](O)/C=C/[C@@H]1[C@@H](C/C=C\CCCC(=O)O)C(=O)C(C)(C)[C@H]1O [Compound 44]
Given back: two

Asked: Consider CC1(C)C(=O)[C@H](CC#CCCCC(=O)O)[C@@H](/C=C/C(O)Cc2cc3ccccc3s2)[C@@H]1O (single isomer, unassigned) [Compound 74] . To which IC50 class does it belong?
Given back: three

* * *

- studyTarget: hEP4 (Homo sapiens (Human))
- Sequence (P35408 whole entry, looked up): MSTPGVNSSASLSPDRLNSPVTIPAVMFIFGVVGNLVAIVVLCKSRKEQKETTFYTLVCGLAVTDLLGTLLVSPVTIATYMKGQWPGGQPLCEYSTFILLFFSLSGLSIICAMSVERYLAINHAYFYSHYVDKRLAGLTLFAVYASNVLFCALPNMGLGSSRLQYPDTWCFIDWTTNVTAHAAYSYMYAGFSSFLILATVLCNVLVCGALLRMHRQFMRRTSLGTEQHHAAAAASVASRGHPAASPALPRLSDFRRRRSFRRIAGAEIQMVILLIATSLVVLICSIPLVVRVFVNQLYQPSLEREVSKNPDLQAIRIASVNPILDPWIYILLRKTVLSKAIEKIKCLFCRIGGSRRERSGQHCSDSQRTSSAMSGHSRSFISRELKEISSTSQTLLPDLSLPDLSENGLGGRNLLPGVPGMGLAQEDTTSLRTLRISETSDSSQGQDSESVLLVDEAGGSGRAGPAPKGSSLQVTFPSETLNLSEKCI
- assayDetails: FLIPR calcium signal, HEK-293(EBNA) cells expressing hEP4/Gqs5
- experimentalSetup: bottom number in Table 2, read-out: hEP4 functional EC50
pEC50: −log10 of the molar value.
pEC50 of 8 or higher: label 1. Under 8: label 0.

Take a look at these entries with their results.
Asked: Hello, I need to know if CC1(C)C(=O)[C@H](C/C=C\CCCC(=O)O)[C@@H](/C=C/C(O)CCc2ccccc2)[C@@H]1O (single isomer, unassigned) [Compound 52] has measured pEC50 not below 8. Thanks!
Given back: label 0

Asked: Test whether the molecule CCCCC[C@H](O)/C=C/[C@@H]1[C@@H](CC#CCCCC(=O)O)C(=O)C(C)(C)[C@H]1O [Compound 43] records pEC50 of 8 or higher.
Given back: label 0

Asked: Say whether CC1(C)C(=O)[C@H](C/C=C\CCCC(=O)O)[C@@H](/C=C/C(O)Cc2ccccc2)[C@@H]1O (single isomer, unassigned) [Compound 46] shows pEC50 of 8 or more.
Given back: label 1

Asked: Would you say CC1(C)C(=O)[C@H](CC#CCCCC(=O)O)[C@@H](/C=C/C(O)CCc2sc3ccccc3c2Cl)[C@@H]1O (single isomer, unassigned) [Compound 37] shows pEC50 at minimum 8?
Given back: label 0

Asked: Decide: pEC50 of CC1(C)C(=O)[C@H](C/C=C\CCCC(=O)O)[C@@H](/C=C/C(O)Cc2cc3ccccc3s2)[C@@H]1O (single isomer, unassigned) [Compound 55] >= 8?
Given back: label 0

Asked: Hi team, for COC(=O)CCC/C=C\C[C@H]1C(=O)C(C)(C)[C@@H](O)[C@@H]1/C=C/C(O)CCc1ccccc1 (single isomer, unassigned) [Compound 50] , is the recorded pEC50 at or above 8?
Given back: label 0

Asked: Entry COC(=O)CCC/C=C\C[C@H]1C(=O)C(C)(C)[C@@H](O)[C@@H]1/C=C/C(O)CCc1sc2ccccc2c1Cl (single isomer, unassigned) [Compound 38] : is its pEC50 no less than 8?
Given back: label 0

Asked: Check this molecule for pEC50 at or above 8: CCCCC[C@H](O)/C=C/[C@@H]1[C@@H](C/C=C\CCCC(=O)O)C(=O)C(C)(C)[C@H]1O [Compound 44]
Given back: label 1

New cases:
Asked: Form field: pEC50 at least 8? Entry: CC1(C)C(=O)[C@H](CC#CCCCC(=O)O)[C@@H](/C=C/C(O)CCc2sc3ccccc3c2Cl)[C@@H]1O (single isomer, unassigned) [Compound 36]
Given back: label 0

Asked: // inclusive: pEC50 at least 8? input: CC1(C)C(=O)[C@H](SCCCSCC(=O)O)[C@@H](/C=C/C(O)CCc2sc3ccccc3c2Cl)[C@@H]1O (single isomer, unassigned) [Compound 24]
Given back: label 1
